# protocolDescription: Quantitative High-Throughput drug screen in 47 multiple myeloma cell lines against the NCATS MIPE library collection: MOLP8_DSMZ cell viability assay (AID 1918977); note: nearly all actives have a fitted effect of over 45% in size; note: potency is the fitted concentration of half-maximal effect
# measurementSetup: MOLP8 myeloma viability, CellTiter-Glo ATP luminescence, 48 h; series mostly up to 45.8 µM
Records with an inconclusive call do not appear. Active and inactive are the calls of the source. Calls come from the whole dose curve; as a rule, active = well fitted cell-killing curve with a large enough effect; inconclusive = small, poorly fitted or top-dose-only effect, or effect the other way; inactive = no such curve, though single readings can be large or run the other way.

compoundString | Potency
C[C@H]1COC2=C1C(=O)C(=O)c1c2ccc2c1CCCC2(C)C | 20.9 µM (active)
CCCCn1c(=O)n(Cc2ccccc2F)c(=O)c2[nH]c(Cc3ccc(NC(C)=O)cc3)nc21 | inactive
CC(C)CN(C[C@@H](O)[C@H](Cc1ccccc1)NC(=O)O[C@H]1CO[C@H]2OCC[C@H]21)S(=O)(=O)c1ccc(N)cc1 | inactive
Cc1nc2c([nH]1)CCN(C(=O)c1ccc(NC(=O)c3ccccc3-c3ccccc3)cc1)c1ccccc1-2 | inactive
COC(=O)Nc1ccc(-c2nc(N3CCOCC3)c3cnn(C4CCN(C(=O)OC)CC4)c3n2)cc1 | 1.48 µM (active)
O=C(c1ccc(C=Cc2n[nH]c3ccccc23)cc1)N1CCNCC1 | 16.6 µM (active)
CC[C@H](C)C(=O)O[C@H]1C[C@H](O)C=C2C=C[C@H](C)[C@H](CC[C@@H](O)C[C@@H](O)CC(=O)O)[C@H]21 | inactive
CON(C)C(=O)N1N=C(c2cc(F)ccc2F)S[C@]1(CCCN)c1ccccc1 | inactive
O=C(Nc1cccc2c(=O)cc(-c3nn[nH]n3)oc12)c1ccc(OCCCCc2ccccc2)cc1 | inactive

* * *

# protocolDescription: qHTS of pediatric cancer cell lines to identify multiple opportunities for drug repurposing: Primary screen for SJ-GBM2 cells (AID 1347091)
# measurementSetup: SJ-GBM2 viability, CellTiter-Glo luminescence, 48 h; series mostly up to 46 µM
Inconclusive results are not listed. Active and inactive are the calls of the source. Calls come from the whole dose curve; as a rule, active = well fitted cell-killing curve with a large enough effect; inconclusive = small, poorly fitted or top-dose-only effect; inactive = no such curve, though single readings can be large or run the other way.
Possible outcomes: active, inactive

molecule | labelValue
CN1N=C(N)c2cn([C@@H]3O[C@H](COP(=O)(O)O)[C@@H](O)[C@@H]3O)c3ncnc1c23 | active
Cc1cccc(-c2[nH]c(C(C)(C)C)nc2-c2ccc3c(c2)OCO3)n1 | active
CC(C)n1c(C=C[C@H](O)C[C@H](O)CC(=O)O)c(-c2ccc(F)cc2)c2ccccc21 | active
CCN1CCC(n2cc(CNc3cc(Cl)c4ncc(C#N)c(Nc5ccc(F)c(Cl)c5)c4c3)nn2)CC1 | active
COc1c(C)cnc(Cn2cnc3c(Cl)nc(N)nc32)c1C | active
CCN(CC)CCCCNc1nc2cc(Cl)c(Cl)cc2nc1-c1ccc(-c2cccs2)s1 | active
Cc1nc(C(=O)NCC(=O)O)c(O)c2ccc(Oc3ccccc3)cc12 | inactive
CCC(c1ccc(O)cc1)C(CC)c1ccc(O)cc1 (configuration not stated) | inactive
CN(C)CCOc1cc(-c2cn[nH]c2)ccc1NC(=O)C1COc2ccccc2O1 (configuration not stated) | inactive
O=C(O)C1=CO[C@@H](O[C@@H]2O[C@H](CO)[C@H](O)[C@H](O)[C@H]2O)[C@@H]2C(CO)=CC[C@H]12 | inactive
NCc1c[nH]c(=S)n1[C@H]1CCc2c(F)cc(F)cc2C1 | active
CC(=O)N1CCN(c2ccc(OCc3nn(C)c(C)c3-c3cccc4c(CCCOc5cc(C)c(Cl)c(C)c5)c(C(=O)O)n(Cc5cccnc5)c34)cc2)CC1 | active
O=C1CCCC(=O)C1C(=O)c1ccc(C(F)(F)F)cc1[N+](=O)[O-] | inactive
CC(=O)O[C@]1(C(C)=O)CC[C@H]2[C@@H]3C=C(Cl)C4=CC(=O)[C@@H]5C[C@H]5[C@]4(C)[C@@H]3CC[C@@]21C | active
O=c1[nH]c(=O)n([C@H]2C[C@@H](O)[C@@H](CO)O2)cc1I | inactive
O=C1NC(=O)C(c2cnc3ccccn23)=C1c1cn2c3c(cccc13)CN(C(=O)N1CCOCC1)CC2 | active
CO[C@@H]1C(N(C)C(=O)c2ccccc2)C[C@H]2O[C@]1(C)n1c3ccccc3c3c4c(c5c6ccccc6n2c5c31)C(=O)NC4=O (some centres not stated) | active
CC(C)[C@H](O)C(=O)N[C@@H](C)C(=O)N[C@@H]1C(=O)N(C)CCc2ccccc21 | inactive
CCCCCCOC(=O)N=C(N)c1ccc(NCc2nc3cc(C(=O)N(CCC(=O)OCC)c4ccccn4)ccc3n2C)cc1 | active
CS(=O)(=O)c1ccc(C2=C(c3ccccc3)C(=O)OC2)cc1 | inactive
COc1cc(Nc2nc3ccccc3nc2NS(=O)(=O)c2ccc(NC(=O)c3ccc(C)c(OC)c3)cc2)cc(OC)c1 | active
O=C(NCCCCN1CCOCC1)c1cc2ccccc2o1 | inactive
